tested on: KATO III stomach cancer cell line; experiment: cells; conditions: Homo sapiens, 72 h
Description: Antiproliferative activity against FGFR2 amplified human KATO III cells measured after 3 days by MTT assay
Reported pIC50 is given for each of the following compounds.
Reminder that pIC50 is minus the log10 of a molar concentration.

Recorded pIC50, per entry:
C[C@@H](Oc1ccc2[nH]nc(/C=C/c3cnn(CCNC(=O)CCCNc4ccc5c(c4)C(=O)N(C4CCC(=O)NC4=O)C5=O)c3)c2c1)c1c(Cl)cncc1Cl (stereo partly specified) | 7.98
C[C@@H](Oc1ccc2[nH]nc(/C=C/c3cnn(CCNC(=O)/C=C/c4ccc(C(F)(F)F)cc4)c3)c2c1)c1c(Cl)cncc1Cl | 7.38

Notebook: "C[C@@H](Oc1ccc2[nH]nc(/C=C/c3cnn(CCNC(=O)/C=C/c4cccc(C(F)(F)F)c4)c3)c2c1)c1c(Cl)cncc1Cl" , pIC50 read as 7.41

Notebook: "C[C@@H](Oc1ccc2[nH]nc(/C=C/c3cnn(CCNC(=O)/C=C/C(=O)c4ccc(Br)cc4)c3)c2c1)c1c(Cl)cncc1Cl" , pIC50 read as 7.33

Notebook: C[C@@H](Oc1ccc2[nH]nc(/C=C/c3cnn(CCNC(=O)CCCNc4cccc5c4C(=O)N(C4CCC(=O)NC4=O)C5=O)c3)c2c1)c1c(Cl)cncc1Cl (stereo partly specified) , pIC50 read as 8.09

Notebook: C[C@@H](Oc1ccc2[nH]nc(/C=C/c3cnn(CCNc4cccc5c4C(=O)N(C4CCC(=O)NC4=O)C5=O)c3)c2c1)c1c(Cl)cncc1Cl (stereo partly specified) , pIC50 read as 8.17

Notebook: "COc1ccc(C(=O)/C=C/C(=O)NCCn2cc(/C=C/c3n[nH]c4ccc(O[C@H](C)c5c(Cl)cncc5Cl)cc34)cn2)cc1" , pIC50 read as 7.99

Notebook: C[C@@H](Oc1ccc2[nH]nc(/C=C/c3cnn(CCNc4ccc5c(c4)C(=O)N(C4CCC(=O)NC4=O)C5=O)c3)c2c1)c1c(Cl)cncc1Cl (stereo partly specified) , pIC50 read as 8.14

Notebook: "C[C@@H](Oc1ccc2[nH]nc(/C=C/c3cnn(CCNC(=O)/C=C/C(=O)c4ccc(F)cc4)c3)c2c1)c1c(Cl)cncc1Cl" , pIC50 read as 7.92
